test.name: qHTS assay to identify small molecule antagonists of the constitutive androstane receptor (CAR) signaling pathway - cell viability counter screen (AID 1224837); note: nearly all actives have a fitted effect of over 45% in size
conditions.used: HepG2-CYP2B6-hCAR viability, CellTiter-Fluor, 23 h, co-treated with 50 nM CITCO; series mostly up to 92.4 µM
Inconclusive results are not listed. Calls of active or inactive are those of the source. Calls come from the whole dose curve; as a rule, active = well fitted cell-killing curve with a large enough effect in the repeat runs; inconclusive = weak or mixed curves, or effect the other way; inactive = flat fitted curve, though single readings scatter.
Valid outcomes are listed here; reply with one: active, inactive

[[record]]
test_smiles = "O=C[C@H](O)[C@H](O)[C@H](O)CO"
class_name = "inactive"


Outcome logged for O[C@@H](c1cc(C(F)(F)F)nc2c(C(F)(F)F)cccc12)[C@H]1CCCCN1 in this assay:
active

Outcome logged for CCCCCCCC/C=C\CCCCCCCC(=O)OCCOC(=O)CCCCCCC/C=C\CCCCCCCC in this assay:
inactive

Outcome logged for CC(C)OC(=O)c1cc(C(=O)OC(C)C)cc([N+](=O)[O-])c1 in this assay:
inactive
